Values from the supplement of paper PMC9170038

test system: MS2 coat protein; experiment: apparent KD of MS2 coat protein; designed switch direction (-1 OFF switch, 1 ON switch): -1; higher = weaker reporter binding; conditions: input ligand: FMN 200 uM
TEST READOUT: apparent KD of MS2 coat protein (nM)
Expressed in nM, but write only the number.

Worked set:
SEQUENCE CHAIN	SCALE UNIT	apparent KD of MS2 coat protein
AAGCAUUGCCAAAGGUAGUGCUUAACAUGAGGAUCACCCAUGUAGGAUAUGGUAGGCAAAGCUUACCAGAAGGACAUGAUAAUU [Mat - Exclusion NG 3 - Mod of JL - D14] (Eterna round: R96, puzzle: Exclusion NG 3)	nM	430
GUUGUUUAUGUAGGAUAUGCCUGGCGUGCCUUCGCAGAAGGACAUGAGGAUCACCCAUGUAUUGCGGUCUGCGUUCAGAUCGCU [salish99_ExNG1_r4_023] (Eterna round: R96, puzzle: Exclusion NG 1)	nM	49.8
UUUCGUGUGCGGGCUUUUUACAUGAGGAUCACCCAUGUCCUCUGCUUGUCUUGUCUUGGGCUUUUUUUGGGUUCGGG [-19.4, -42 kcal, A 8%] (Eterna round: R97, puzzle: Sensor, turn-off variant 1)	nM	560

Here's the next entry for you.
For UAAAUGUGAGGAUAUUCGUAGAACUCGGAGACGAGUUUUACGGAGAAGGCACAUGAGGAUCACCCAUGUUCCUU [Mat - Exclusion 4 - JL Mod - D2] (Eterna round: R97, puzzle: Exclusion 4) , what is its reported apparent KD of MS2 coat protein?
169

====

test system: K4 kissing-loop RNA reporter; assay: apparent KD of K4 kissing-loop reporter; higher = weaker reporter binding; conditions: Eterna round: R107; input ligand: tryptophan 2.4 mM;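 also: bound reporter read as fluorescence of individual clusters on recovered sequencing chips by microscopy, with normalized cluster intensities fitted with a binding model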
TEST READOUT: apparent KD of K4 kissing-loop reporter
Please answer using a numeric value trailed by its unit.

Here's what some known entries look like.
SEQUENCE CHAIN	MEASURED TARGET	apparent KD of K4 kissing-loop reporter
CGGGAAUUAGGUAUCGUCGAAAGCAAGAACCGAGGACCGGUACGGCCGCCACUCGCACCAGUGAUGUUGGUACAUUUGGUAUCCG [theeternabot_sameState_KL_Trp_A_31]	K4 kissing-loop RNA reporter	132 nM
UAUAUAGUGACGGCCGCCACUAUAGUGAUGUUAUUGUUAGAGUGAUGUUUUGUUGUUUAAUUUUGUAGGACCGGGUUAUAUGUUA [tbbtmullin]	K4 kissing-loop RNA reporter	446 nM

# get_value(readout='apparent KD of K4 kissing-loop reporter', item= GCGGCCCAGCCGGAUACCAGUGAGCCGCUGGGAACCGCGGGCCCAGAGUGAUGUUCGGGACACCCUUGGCAGCCGCCUGGGUCGC [#2 Same State - Theophylline B Attempt #20 (HarryS)] )
491 nM

Same lookup for AGGGUAAGGCGUUAACAUGACACCUGGGAAGGAGCGCGGUACACCGCAGGUAGGUCGCCCAGUGAUGUUGGGUGUAAGUAUGAGU [KL-XArg-A23] , please.
115 nM

And GAGAUAGAGGCGGCCGCCACUAGUGAUGUUAGUGAUGUUAGAUAGAGAAUAGAACAGAGAUAGGAUAGGACCGGGCCAGAUAGAG [Tryptophan B Exclusion; Euphoria Solution] ?
68.6 nM

====

test system: MS2 coat protein; experiment: apparent KD of MS2 coat protein; designed switch direction (-1 OFF switch, 1 ON switch): -1; higher = weaker reporter binding; details: input ligand: none
TEST READOUT: apparent KD of MS2 coat protein (nM)
Please state the figure in nM; there is no need to write the unit.

SEQUENCE CHAIN	MEASURED TARGET	apparent KD of MS2 coat protein (nM)
GCCGAUUAAGUGAGGAUAUACCUAUGGAUACAUAGGUAGAAGGCACAUGAGGAUCACCCAUGUUCCUCAUCGGC [Fiskers BMX 4 - 11] (Eterna round: R96, puzzle: Brourd's mod of Exclusion 4)	MS2 coat protein	21.3
GUUGUUUAUGUAGGAUAUGCCUGGCGUGCCUUCGCAGAAGGACAUGAGGAUCACCCAUGUAUUGCGGUCUGCGUUCAGAUCGCU [salish99_ExNG1_r4_023] (Eterna round: R96, puzzle: Exclusion NG 1)	MS2 coat protein	52.7
AUAUUGUGAGGAUAUGUACUUAGUAUCGAAAGAUACUAAGUUCAGAAGGCACAUGAGGAUCACCCAUGUUUCUC [Long static hairpin v13] (Eterna round: R97, puzzle: Exclusion 4)	MS2 coat protein	63.5

Which value of apparent KD of MS2 coat protein has been reported for CACUUACAUGAGGAUCACCCAUGUGAGGAUAUCGUGACCAGACGAGAAGUCUAUGUCACGAGAAGGCACUUGGG [Exclusion 1 (Mod 2 solution 97 by Eternabot)] (Eterna round: R97, puzzle: Exclusion 1) in the records?
314
